TARGET SYSTEM: T1, rhNav1.7α + β1-β2-β3 (rhesus Nav1.7α co-expressed with Navβ1, Navβ2 and Navβ3 on cells) (rhesus monkey (α subunit); β subunits …)
T1 construct: also called rhNav1.7-beta1-beta2-beta3; CHO FlpIn rhNav1.7α + β1-β2-β3
EXPERIMENT: binding FACS, CHO FlpIn cells
Bmax reference
# value in %; strip the unit string

# annotated cases, reported Bmax shown
BINDER: F010302383 (VHH, also called F0103387G04(L11V, A12V, K33R, R39Q, S50Y, S56D, T60A, D72G, W78V, S79Y, T83R, V89L, N93R, D99S, N100cG) + FLAG3-HIS6) VHH: EVQLVESGGGVVQPGGSLRLSCAASGPVFNINRMAWYRQAPGKQRELVAYVTPTGDISYADSVKGRFTISRGGSKRVYLQMNSLRPEDTALYYCRALLQPSSYSGTRTYWGQGTLVTVSS
Bmax [%]: 100

BINDER: F010301843 (VHH, also called F0103387G04(L11V, A12V, K33R, R39Q, S50Y, S56D, G73N, T83R, V89L, N93R)) VHH: EVQLVESGGGVVQPGGSLRLSCAASGPVFNINRMAWYRQAPGKQRELVAYVTPTGDISYTDSVKGRFTISRDNSKRWSLQMNSLRPEDTALYYCRALLQPDSYSNTRTYWGQGTLVTVSS
Bmax [%]: 100

Okay, next one:
Exercise: Entry F010302372 (VHH, also called F0103387G04(L11V, A12V, K33R, R39Q, S50Y, S56D, T60A, G73R, W78V, S79Y, T83R, V89L, N93R, S100V, N100cI)) VHH: EVQLVESGGGVVQPGGSLRLSCAASGPVFNINRMAWYRQAPGKQRELVAYVTPTGDISYADSVKGRFTISRDRSKRVYLQMNSLRPEDTALYYCRALLQPDVYSITRTYWGQGTLVTVSS has what Bmax?
Key: 100
